# experimentalSystem: Nrg2 (UniProt P38082)
# Sequence: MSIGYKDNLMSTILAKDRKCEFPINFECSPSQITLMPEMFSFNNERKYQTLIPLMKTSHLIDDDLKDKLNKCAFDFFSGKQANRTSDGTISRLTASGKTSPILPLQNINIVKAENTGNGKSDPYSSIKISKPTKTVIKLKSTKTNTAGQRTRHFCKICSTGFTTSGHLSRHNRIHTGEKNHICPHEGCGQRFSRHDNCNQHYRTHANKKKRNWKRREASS
# methodDescription: PBM E-score (8-mer binding enrichment) (E-score (-0.5 to 0.5)); higher = stronger / more preferred TF binding
# conditionDetails: protein concentration: 100 nM; construct: GST-full length
The full ranking holds about 33,000 sequences; the median of “E-score (-0.5 to 0.5)” is about -8e-05, and the highest 2% start at about 0.23. Many of the other results were omitted from the sample, so the highest values are more common in it than they were.
measurementLabel: PBM E-score

Please supply PBM E-score for each of the following items, keeping them in order.
1. AAGGTCCA
2. ACTTAGCT
3. GAGAGAAC
4. AGTCGACA
5. AAACCCTA

Result string:
0.073
-0.202
-0.0345
0.194
0.184

Please supply PBM E-score for each of the following items, keeping them in order.
1. AGTCAAGG
2. TAGAGATA
3. CACCTATA
4. ATACCCTG
5. AGTCCCAC

Result string:
1. -0.174
2. 0.0396
3. -0.032
4. 0.295
5. -0.079

Please supply PBM E-score for each of the following items, keeping them in order.
1. CGGGTCAA
2. ACGGTCCC
3. CGTAGGAA
4. AGTCGACC

Result string:
-0.0478
-0.00846
-0.0744
-0.0853

Please supply PBM E-score for each of the following items, keeping them in order.
1. CAACCCTC
2. TATCAACA
3. TTAGTAAA

Result string:
0.0136
0.0479
0.169

Please supply PBM E-score for each of the following items, keeping them in order.
1. AGGGTCCA
2. CGGCCTTA
3. CCGCCCAG

Result string:
1: 0.439; 2: 0.0601; 3: -0.0404

Please supply PBM E-score for each of the following items, keeping them in order.
1. ACGGTCCA
2. ACACCGAC
3. AGTCAGGA
4. GATCAACA
5. CCCCCTCA
6. CCTGTATC
7. TCCCCTCA
8. AGGCTTCC

Result string:
1: -0.162; 2: -0.151; 3: 0.0134; 4: -0.0582; 5: -0.379; 6: 0.233; 7: 0.235; 8: 0.0147

Please supply PBM E-score for each of the following items, keeping them in order.
1. AGGGTCAA
2. ACTGTATC
3. AATCAACA
4. GAGGTCCA
5. CGGGTCCC
6. GTAAGCCA
7. CACGCAGC
8. ACAACACA

Result string:
0.236
-0.0153
0.239
-0.0725
-0.125
-0.113
-0.0258
0.0869

Please supply PBM E-score for each of the following items, keeping them in order.
1. CTCACAAC
2. AGTTTCGA
3. AGACCCTC
4. CGAGACCC
5. CAACCCTA

Result string:
0.206
0.0135
0.0175
0.263
0.0574

Measured values drawn from the supplement of paper PMC3334620 for this set.
